Biological target: MAGL (Homo sapiens)
Construct: Proteomes (human prefrontal cortex or cell membrane fractions); from tissue
Sequence (Q99685 1-303): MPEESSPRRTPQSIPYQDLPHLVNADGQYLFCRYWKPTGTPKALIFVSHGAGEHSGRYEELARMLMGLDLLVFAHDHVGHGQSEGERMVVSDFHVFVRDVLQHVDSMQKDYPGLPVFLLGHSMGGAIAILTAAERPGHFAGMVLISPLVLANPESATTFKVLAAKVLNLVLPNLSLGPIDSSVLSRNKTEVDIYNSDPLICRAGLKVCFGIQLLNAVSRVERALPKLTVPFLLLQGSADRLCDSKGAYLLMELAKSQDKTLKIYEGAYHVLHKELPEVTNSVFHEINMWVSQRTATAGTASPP
Test: In vitro competitive activity-based protein profiling (gel-based, FP-Rh or HT-01 probe)
Type: biochemical
Conditions: PC3 proteome, read-out: IC50 MGLL PC3 (Human)
pIC50: −log10 of the molar value.
Overview of reported pIC50 across a group of molecules:

Use these answered entries as a reference point.
- MOLECULE: "O=C(O)C1CCN(c2cc(CN3CC4(CCN(C(=O)OC(C(F)(F)F)C(F)(F)F)CC4)C3)cc(C(F)(F)F)c2)CC1 [Example 99]"
  pIC50: "> 7.00"
- MOLECULE: "CC1(OCc2cc(CN3CCC(C(=O)O)CC3)cc(C(F)(F)F)c2)CCN(C(=O)OC(C(F)(F)F)C(F)(F)F)CC1 [Example 25]"
  pIC50: "> 7.00"

Query :: Query (molecule): CC1(C(=O)O)CCN(c2cc(C(F)(F)F)ccc2CN2CC3(CCN(C(=O)OC(C(F)(F)F)C(F)(F)F)CC3)C2)C1 (stereo not drawn) [Example 115] ; field requested: pIC50
Result :: > 7.00

###

target: MGLL (Mus musculus, UniProt O35678); construct: Brain; from tissue; host or cells: mouse brain proteome; experiment: In vitro competitive activity-based protein profiling, mouse brain proteome; format: biochemical

- COMPOUND: "O=C(O)[C@@H]1CCCN1C1CCN(c2cc(C(F)(F)F)ccc2CN2CCCC23CCN(C(=O)OC(C(F)(F)F)C(F)(F)F)CC3)CC1"
  % Inh MGLL Brain (Mouse, μM): "### (### is ≥ 75%)"
- COMPOUND: "CN(Cc1ccc(C(F)(F)F)cc1N1CCC(N2CCC[C@H]2C(=O)O)CC1)C1(C)CCN(C(=O)OC(C(F)(F)F)C(F)(F)F)CC1"
  % Inh MGLL Brain (Mouse, μM): "### (### is ≥ 75%)"
- COMPOUND: "O=C(O)CN1CC2CC1CN2c1cc(C(F)(F)F)ccc1CN1CCCC12CCN(C(=O)OC(C(F)(F)F)C(F)(F)F)CC2 (stereo not shown)"
  % Inh MGLL Brain (Mouse, μM): "### (### is ≥ 75%)"

###

Overview of reported inhibition at 5 mg/kg across a group of molecules:
biological target: MAGL (Mus musculus); construct: from tissue; host or cells: brain of wild-type C57Bl/6J mice; test: Mouse brain proteomes from inhibitor treated mice (oral gavage, brain proteomes analyzed 4 h after administration); type: in vivo, mouse (C57Bl/6J); details: brain proteome 4 h after administration, read-out: % Inh 5 mg/kg MGLL (Mouse)

Use these answered entries as a reference point.
- MOLECULE: "O=C(O)CN1CC2CC1CN2c1cc(C(F)(F)F)ccc1CN1CC2(CCN(C(=O)OC(C(F)(F)F)C(F)(F)F)CC2)C1 (stereo not drawn) [Example 127]"
  inhibition at 5 mg/kg: "≤ 25%"
- MOLECULE: "CCN1CCN(c2cccc(C(F)(F)F)c2CN2CC3(CCN(C(=O)OC(C(F)(F)F)C(F)(F)F)CC3)C2)CC1 [Example 54]"
  inhibition at 5 mg/kg: "≤ 25%"
- MOLECULE: "CS(=O)(=O)N1CCN(c2cccc(C(F)(F)F)c2CN2CC3(CCN(C(=O)OC(C(F)(F)F)C(F)(F)F)CC3)C2)CC1 [Example 53]"
  inhibition at 5 mg/kg: "≥ 75%"
- MOLECULE: "O=C(OC(C(F)(F)F)C(F)(F)F)N1CCC2(CC1)CN(Cc1c(Cl)cccc1N1CCN(C3CC3)CC1)C2 [Example 58]"
  inhibition at 5 mg/kg: "≥ 75%"
- MOLECULE: "CS(=O)(=O)N1CCC2(CCN(c3cccc(Cl)c3CN3CC4(CCN(C(=O)OC(C(F)(F)F)C(F)(F)F)CC4)C3)CC2)C1 [Example 61]"
  inhibition at 5 mg/kg: "25 to 75%"

Continue with the molecule presented below.
Query :: Query (molecule): O=C(O)CN1CC2(CCN(c3cc(CN4CCCC45CCN(C(=O)OC(C(F)(F)F)C(F)(F)F)CC5)cc(C(F)(F)F)c3)CC2)C1 [Example 158] ; field requested: inhibition at 5 mg/kg
Result :: ≤ 25%

###

Biological target: MAGL (Mus musculus, UniProt O35678)
Construct: from tissue; host or cells: brain of wild-type C57Bl/6J mice
Sequence (O35678 1-303): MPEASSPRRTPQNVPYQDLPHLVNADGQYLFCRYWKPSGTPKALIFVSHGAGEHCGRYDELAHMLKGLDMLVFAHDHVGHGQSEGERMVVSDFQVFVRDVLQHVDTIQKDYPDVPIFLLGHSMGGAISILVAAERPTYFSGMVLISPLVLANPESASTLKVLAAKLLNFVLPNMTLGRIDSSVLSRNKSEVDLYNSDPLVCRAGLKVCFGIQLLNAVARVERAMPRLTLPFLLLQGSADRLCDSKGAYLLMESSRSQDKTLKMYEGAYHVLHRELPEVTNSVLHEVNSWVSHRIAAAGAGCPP
Experiment: Mouse brain proteomes from inhibitor treated mice (oral gavage, brain proteomes analyzed 4 h after administration)
Format: in vivo, mouse (C57Bl/6J)
Conditions: brain proteome 4 h after administration, read-out: % Inh 5 mg/kg MGLL (Mouse)
REPORTED_ENDPOINT: inhibition at 5 mg/kg

Use these answered entries as a reference point.
- COMPOUND: "O=C(O)CN1CCC2(CCN(c3cc(C(F)(F)F)ccc3CN3CCCC34CCN(C(=O)OC(C(F)(F)F)C(F)(F)F)CC4)CC2)C1 [Example 153]"
  RECORDED_RESULT: "≤ 25%"
- COMPOUND: "CN(Cc1ccc(C(F)(F)F)cc1N1CCC(C(=O)O)C1)C1(C)CCN(C(=O)OC(C(F)(F)F)C(F)(F)F)CC1 (stereo not drawn) [Example 118]"
  RECORDED_RESULT: "≥ 75%"

Query :: Query (compound): CS(=O)(=O)N1CCC2(CCN(c3cc(CN4CCCC45CN(C(=O)OC(C(F)(F)F)C(F)(F)F)C5)cc(C(F)(F)F)c3)CC2)C1 [Example 233] ; field requested: inhibition at 5 mg/kg
Result :: ≤ 25%

###

target: MAGL (Mus musculus, UniProt O35678); construct: from tissue; host or cells: brain of wild-type C57Bl/6J mice; assay: Mouse brain proteomes from inhibitor treated mice (oral gavage, brain proteomes analyzed 4 h after administration); type: in vivo, mouse (C57Bl/6J); settings: brain proteome 4 h after administration, read-out: % Inh 5 mg/kg MGLL (Mouse)
REPORTED_ENDPOINT: inhibition at 5 mg/kg

Use these answered entries as a reference point.
- COMPOUND: "O=C(OC(C(F)(F)F)C(F)(F)F)N1CCC2(CCN(Cc3ccc(Cl)cc3N3CCOCC3)CC2)C1"
  RECORDED_RESULT: "≥ 75%"
- COMPOUND: "CN1CCC2(CCN(c3cc(Cl)ccc3CN3CCN(C(=O)OC(C(F)(F)F)C(F)(F)F)CC3)CC2)C1"
  RECORDED_RESULT: "25 to 75%"
- COMPOUND: "O=C(OC(C(F)(F)F)C(F)(F)F)N1CCC2(CC1)CN(Cc1ccc(Cl)cc1N1CCOCC1)C2"
  RECORDED_RESULT: "≥ 75%"
- COMPOUND: "O=C(O)CN1CC2CC1CN2c1cc(CN2CCCC23CCN(C(=O)OC(C(F)(F)F)C(F)(F)F)CC3)cc(C(F)(F)F)c1 (stereo not shown)"
  RECORDED_RESULT: "≤ 25%"
- COMPOUND: "O=C(O)CN1CC2(CCN(c3cc(C(F)(F)F)ccc3CN3CCCC34CCN(C(=O)OC(C(F)(F)F)C(F)(F)F)CC4)CC2)C1"
  RECORDED_RESULT: "≤ 25%"
- COMPOUND: "O=C(OC(C(F)(F)F)C(F)(F)F)N1CCC2(CCCN2Cc2cc(F)cc(C3(C(=O)O)CCCC3)c2)CC1"
  RECORDED_RESULT: "≥ 75%"

Query :: Query (compound): `CS(=O)(=O)N1CC2(CCN(c3cc(C(F)(F)F)ccc3CN3CCN(C(=O)OC(C(F)(F)F)C(F)(F)F)CC3)C2)C1` ; field requested: inhibition at 5 mg/kg
Result :: ≥ 75%
